molecule	unit-spec	glass transition temperature
*Oc1c(C)c(C)c(NC(=O)c2ccc(C(=O)Nc3ccc(*)cc3)cc2)c(C)c1C (repeat unit)	°C	333.00
*C(=O)Nc1ccc(NC(=O)c2ccc3c(c2)C(=O)N(c2cccc(P(=O)(c4ccccc4)c4cccc(N5C(=O)c6ccc(*)cc6C5=O)c4)c2)C3=O)cc1 (repeat unit)	°C	204.00
*Oc1cc(C(C)(C)C)c(Oc2ccc(C(=O)Nc3c(C)cc(Cc4cc(C)c(NC(=O)c5ccc(*)cc5)c(C(C)C)c4)cc3C(C)C)cc2)cc1C(C)(C)C (repeat unit)	°C	260.00

----------
compound	unit-spec	glass transition temperature
*C(=O)Oc1ccc(C2(c3ccc(OC(=O)c4ccc5c(c4)C(=O)N(c4ccc(-c6ccc(N7C(=O)c8ccc(*)cc8C7=O)cc6C)c(C)c4)C5=O)cc3)C3CC4CC(C3)CC2C4)cc1 (repeat unit)	°C	222.00
*c1ccc(-c2cc(C(C)(C)C)c(Oc3ccc(N4C(=O)c5ccc(S(=O)(=O)c6ccc7c(c6)C(=O)N(*)C7=O)cc5C4=O)cc3C(F)(F)F)c(C(C)(C)C)c2)cc1 (repeat unit)	°C	365.50
*=Cc1cc(OCCCCCCCC)c(/C=N/c2ccc(N=*)cc2)cc1OCCCCCCCC (repeat unit)	°C	32.70
*Cc1ccc(CNC(=O)CCCCCCCCCCCCCC(=O)N*)cc1 (repeat unit)	°C	90.00
*CC(*)(C)C(=O)OCCOCCOCCOCCOCCOCCOCCOCCOC (repeat unit)	°C	-58.00
*O[Si](*)(CCC)c1ccccc1 (repeat unit)	°C	40.60
*Oc1c(F)c(F)c(-c2c(F)c(F)c(Oc3ccc(Cc4ccc(*)c(C=O)c4)cc3C=O)c(F)c2F)c(F)c1F (repeat unit)	°C	198.00
*COc1ccc(C(C)(C)c2ccc(O*)cc2)cc1 (repeat unit)	°C	90.00
*CCOCCOC(=O)CCCCCCCCCCC(=O)O* (repeat unit)	°C	-71.00
*CCCCCCOC(=O)OCCCCCCCCCOC(=O)OCCCCCCOc1ccc(C(=O)c2ccc(O*)cc2)cc1 (repeat unit)	°C	-6.00
*O[Si](*)(C)CCCOc1ccc(C(=O)Oc2ccc(-c3ccc(OC(=O)c4ccc(OCC)cc4)cc3)cc2)cc1 (repeat unit)	°C	74.60
*Oc1ccc(Oc2ccc(NC(=O)c3cc(NC(=O)c4ccc(OC(C)=O)cc4)cc(C(=O)Nc4ccc(*)cc4)c3)cc2)cc1 (repeat unit)	°C	251.00
*Oc1ccc(C(=O)CNc2ccc(S(=O)(=O)c3ccc(NCC(=O)c4ccc(*)cc4)cc3)cc2)cc1 (repeat unit)	°C	247.00
*CCCCCCCCc1nc2ccc(-c3ccc4nc(*)oc4c3)cc2o1 (repeat unit)	°C	223.50
*CCCCCCCCCCNC(=O)CCCCCCCCCCCCCCC(=O)N* (repeat unit)	°C	45.00
*CC(*)(C)C(=O)OCC#CO[Si](C)(C)C (repeat unit)	°C	57.00
*c1ccc2c(c1)C(=O)N(c1ccc(Oc3ccc(N4C(=O)c5ccc(C(*)(C(F)(F)F)C(F)(F)F)cc5C4=O)cc3)c(OCCN(CC)c3ccc(/N=N/c4ccc([N+](=O)[O-])cc4)cc3)c1)C2=O (repeat unit)	°C	202.00
*CC(*)(CC(=O)OCC1CCCCC1)C(=O)OCC1CCCCC1 (repeat unit)	°C	83.00
*c1ccc(Oc2ccc(P(=O)(c3ccccc3)c3ccc(Oc4ccc(-c5cc(*)n(-c6ccccc6)n5)cc4)cc3)cc2)cc1 (repeat unit)	°C	239.00
*O[Si](*)(C)CCCn1c2ccccc2c2ccccc21 (repeat unit)	°C	55.5
*/C(=C/c1cc(OCCCCCCCC)c(/C=C(\c2ccccc2)c2ccc3c(c2)Sc2ccc(*)cc2S3)cc1OCCCCCCCC)c1ccccc1 (repeat unit)	°C	93.00
*c1ccc2c(c1)C(=O)N(c1ccc(Sc3ccc(Sc4ccc(Sc5ccc(Sc6ccc(N7C(=O)c8ccc(C(*)(C(F)(F)F)C(F)(F)F)cc8C7=O)cc6)cc5)cc4)cc3)cc1)C2=O (repeat unit)	°C	216.00
*c1ccc(Oc2ccc(N3C(=O)c4ccc(Oc5cccc(Oc6ccc7c(c6)C(=O)N(*)C7=O)c5)cc4C3=O)cc2)cc1 (repeat unit)	°C	209.00
*CC(*)C(=O)NC (repeat unit)	°C	171.00
*CC(O)COC(=O)CCCCC(=O)OCC(O)COc1ccc(C(=O)Oc2ccc(O*)cc2)cc1 (repeat unit)	°C	37.00
*CCCCCCOc1ccc(CCc2ccc(O*)cc2C)cc1 (repeat unit)	°C	17.90
*CCCCCCCCOC(=O)Nc1ccc(Cc2ccc(NC(=O)O*)cc2)cc1 (repeat unit)	°C	79.00
*Oc1ccc(Oc2ccc(OC(=O)c3cccc(Oc4ccc(Oc5cccc(C(*)=O)c5)cc4)c3)cc2)cc1 (repeat unit)	°C	104.00
*Nc1ccc(-c2ccc(NC(=O)c3ccc(NC(=O)c4ccc([Si](C)(C)c5ccc(C(=O)Nc6ccc(C(*)=O)cc6)cc5)cc4)cc3)cc2)cc1 (repeat unit)	°C	320.00
*CC(OC(C)=O)C(CCC(C)(O)C=C)C(*)(C)C (repeat unit)	°C	85.00

----------
Doc: threshold 90 °C (exclusive). Items with glass transition temperature beneath it return criterion met; others return criterion not met.

compound	class
*Oc1ccc(OC(=O)c2cccc(Oc3cccc(C(*)=O)c3)c2)cc1 (repeat unit)	criterion not met
*C(=O)Nc1cccc(NC(=O)c2ccc(-c3nc4cc(*)ccc4[nH]3)cc2)c1 (repeat unit)	criterion not met
*CC(CCCCCCCCCCCCCCCC)C1C(=O)N(CCCCNC(=O)C(F)(F)C(F)(F)C(F)(F)C(F)(F)C(F)(F)C(F)(F)C(F)(F)F)C(=O)C1* (repeat unit)	criterion met
*c1ccc(Oc2ccc(C(C)(C)c3ccc(Oc4ccc(N5C(=O)c6ccc(Oc7ccc8c(c7)C(=O)N(*)C8=O)cc6C5=O)cc4)cc3)cc2)cc1 (repeat unit)	criterion not met
*CC(*)(C)CC (repeat unit) [Poly(2-methylbutene)]	criterion met
*CCCCCCCCCCNC(=O)CCCCC(=O)N* (repeat unit)	criterion met
*c1ccc2c(c1)C(=O)N(c1ccc(Oc3ccc(Oc4ccc(N5C(=O)c6ccc(C(*)(C(F)(F)F)C(F)(F)F)cc6C5=O)cc4)cc3)cc1)C2=O (repeat unit)	criterion not met
*c1ccc(Oc2ccc(NC(=O)c3cccc(Oc4ccc5c(c4)C(=O)N(*)C5=O)c3)cc2)cc1 (repeat unit)	criterion not met
*c1cccc(-c2nc3cc4nc(-c5ccccc5)c(*)nc4cc3nc2-c2ccccc2)c1 (repeat unit)	criterion not met
*CC(*)(C)C(=O)OCCCCCCOc1ccc(C(=O)Oc2ccc(/N=N/c3ccccc3)c3ccccc23)cc1 (repeat unit)	criterion met
*Oc1ccc(Oc2ccc(/C(=N/c3ccc(Oc4ccc(/N=C(\c5ccccc5)c5ccc(*)cc5)cc4)cc3)c3ccccc3)cc2)cc1 (repeat unit)	criterion not met
*CC(*)C(=O)OC (repeat unit) [Poly(methyl acrylate) ]	criterion met
*Oc1ccc(C2(c3ccc(OC(*)=O)c(Cl)c3)CCCCC2)cc1Cl (repeat unit)	criterion not met
*C(=O)Nc1ccc(Oc2ccc(C3(c4ccc(Oc5ccc(NC(=O)c6ccc7c(c6)C(=O)N(c6ccc(Oc8ccc(C9(c%10ccc(Oc%11ccc(N%12C(=O)c%13ccc(*)cc%13C%12=O)cc%11)cc%10)NC(=O)c%10ccccc%109)cc8)cc6)C7=O)cc5)cc4)NC(=O)c4ccccc43)cc2)cc1 (repeat unit)	criterion not met
*Oc1ccc(C(=O)c2cccc(C(=O)c3ccc(*)cc3)c2)cc1 (repeat unit)	criterion not met
*CCCCCCOc1ccc(-c2cc(-c3ccc(-c4ccccc4)cc3)c(-c3ccc(NC(=O)c4ccc(C(=O)Nc5ccc(-c6c(-c7ccc(-c8ccccc8)cc7)cc(-c7ccc(O*)cc7)cc6-c6ccc(-c7ccccc7)cc6)cc5)cc4)cc3)c(-c3ccc(-c4ccccc4)cc3)c2)cc1 (repeat unit)	criterion not met
*CC(*)C(=O)OCCCOc1ccc(C(=O)OCCCC(F)(F)C(F)(F)C(F)(F)C(F)(F)C(F)(F)C(F)(F)F)cc1 (repeat unit)	criterion met
*CCCCCCNC(=O)c1ccc(C(=O)N*)c(Oc2ccc(Br)cc2)c1 (repeat unit)	criterion not met
*CC(*)C(=O)OCCOc1ccc(C(=O)Oc2ccc(OC)cc2)cc1 (repeat unit)	criterion met
*CC1CC2CC1C1CCC(CN3C(=O)c4ccc(-c5ccc6c(c5)C(=O)N(*)C6=O)cc4C3=O)C21 (repeat unit)	criterion not met
*C1C(*)C2CC1C(C(=O)OCCC13CC4CC(CC(C4)C1)C3)C2C(=O)OCCC12CC3CC(CC(C3)C1)C2 (repeat unit)	criterion not met
*CC(COc1ccc(C(C)(C)c2ccc(O*)cc2)cc1)OC(=O)c1ccccc1Cl (repeat unit)	criterion met
*=CNc1ccc(CCc2ccc(N=*)cc2)cc1 (repeat unit)	criterion not met
*CC(C)(CC)COC(=O)c1ccc(-c2ccc(C(=O)O*)cc2)cc1 (repeat unit)	criterion not met
*c1ccc(N2C(=O)c3ccc(P(=O)(c4ccccc4)c4ccc5c(c4)C(=O)N(*)C5=O)cc3C2=O)cc1 (repeat unit)	criterion not met
*Oc1ccc(NC(=O)CCCCCCCCCC(=O)Nc2ccc(*)cc2)cc1 (repeat unit)	criterion not met
*Oc1ccc(NC(=C(C#N)C#N)c2cccc(C(Nc3ccc(Oc4ccc(NC(=O)c5ccc(C(=O)Nc6ccc(*)cc6)cc5)cc4)cc3)=C(C#N)C#N)c2)cc1 (repeat unit)	criterion not met
